- System: Fusarium culmorum VKM F-2303
- Assay: Spore germination and fungal growth inhibition (absorbance)
- Type: cell-based
- Conditions used: Fusarium culmorum; 38 h incubation, absorbance 595 nm; max tested 150 μM; mean ± SD, three replicates
- Protocol: To study the effect of peptides on spore germination and growth of plant pathogenic fungi, fungal strains from the VKM collection were used: Fusarium culmorum VKM F-2303, F. oxysporum VKM F-137, F. solani VKM F-142, F. verticillioides VKM F-670, Bipolaris sorokiniana VKM F-4006, and Botrytis cinerea VKM F-4549. The fungi were grown on potato dextrose agar at 25 °C for 7–8 days, or for B. sorokiniana and B. cinerea, for 10–12 days. […]
Peptide text beside a SMILES is read from it.
Quantity name: IC50 (µM)

{"Compound": "C[C@@H](O)[C@H](NC(=O)[C@H](CS)NC(=O)[C@H](Cc1ccccc1)NC(=O)[C@H](CS)NC(=O)[C@H](CCCNC(=N)N)NC(=O)[C@H](CCCNC(=N)N)NC(=O)[C@H](CCCNC(=N)N)NC(=O)[C@H](Cc1ccccc1)NC(=O)CNC(=O)[C@H](CCCNC(=N)N)NC(=O)[C@H](CS)NC(=O)[C@H](CC(=O)O)NC(=O)CNC(=O)CNC(=O)[C@H](CO)NC(=O)[C@@H](N)Cc1ccccc1)C(=O)N[C@@H](CCCNC(=N)N)C(=O)O [γ58-74SlDEFL2] (H-FSGGDCRGFRRRCFCTR-OH)", "Tgt": "Fusarium culmorum VKM F-2303", "Recorded measurement": 44.8}
{"Compound": "CC(C)C[C@H](NC(=O)CN)C(=O)N[C@@H](CS)C(=O)N[C@@H](CCCCN)C(=O)N[C@@H](Cc1ccc(O)cc1)C(=O)N[C@@H](CCCNC(=N)N)C(=O)N[C@@H](CS)C(=O)N[C@@H](CO)C(=O)N[C@@H](CC(C)C)C(=O)N[C@@H](Cc1c[nH]cn1)C(=O)N[C@@H](CO)C(=O)N[C@@H](CCCNC(=N)N)C(=O)N1CCC[C@H]1C(=O)N[C@@H](CC(N)=O)C(=O)N[C@H](C(=O)N[C@@H](CS)C(=O)N[C@@H](Cc1ccccc1)C(=O)N[C@@H](CCCNC(=N)N)C(=O)O)C(C)C [γ89-106SlSN9] (H-GLCKYRCSLHSRPNVCFR-OH)", "Tgt": "Fusarium culmorum VKM F-2303", "Recorded measurement": 42.4}
{"Compound": "CC(C)C[C@H](NC(=O)[C@H](CC(N)=O)NC(=O)[C@H](CCC(N)=O)NC(=O)[C@H](CCCNC(=N)N)NC(=O)[C@H](CO)NC(=O)[C@H](CO)NC(=O)[C@H](CCCCN)NC(=O)[C@H](CO)NC(=O)[C@H](CS)NC(=O)[C@H](CCCNC(=N)N)NC(=O)[C@@H](NC(=O)[C@H](CCCCN)NC(=O)[C@H](CS)NC(=O)[C@H](CO)NC(=O)CN)[C@@H](C)O)C(=O)N[C@@H](CS)C(=O)N[C@@H](CC(N)=O)C(=O)N[C@@H](CCCNC(=N)N)C(=O)O [γ47-64SlSN10] (H-GSCKTRCSKSSRQNLCNR-OH)", "Tgt": "Fusarium culmorum VKM F-2303", "Recorded measurement": 127}
{"Compound": "CC(C)C[C@H](NC(=O)[C@H](CCCNC(=N)N)NC(=O)[C@H](CS)NC(=O)[C@H](CCCNC(=N)N)NC(=O)[C@H](C)NC(=O)[C@H](C)NC(=O)[C@H](CS)NC(=O)[C@H](C)NC(=O)CN)C(=O)N[C@@H](CO)C(=O)N[C@@H](CO)C(=O)N[C@@H](CCCNC(=N)N)C(=O)N1CCC[C@H]1C(=O)N[C@@H](CCCNC(=N)N)C(=O)N[C@@H](CC(C)C)C(=O)N[C@@H](CS)C(=O)N[C@@H](Cc1c[nH]cn1)C(=O)N[C@@H](CCCNC(=N)N)C(=O)O [γ48-65SlSN2] (H-GACAARCRLSSRPRLCHR-OH)", "Tgt": "Fusarium culmorum VKM F-2303", "Recorded measurement": 42.1}
